Entry source: patent US10550124B2

This section lists IC50 readings for Src kinase (Homo sapiens, UniProt P12931).
Number only, in nM; omit the unit.

INSERT INTO measurements (compound, valueunits, observedmeasurement) VALUES
  ('COc1ccc(Cl)c(-c2c(Cl)n(C(C)(C)C)c3ncnc(N)c23)c1 (single isomer, unassigned) [2e-(S)]', 'nM', 1190),
  ('COc1ccc(Br)c(-c2c(Cl)n(C3CCCC3)c3ncnc(N)c23)c1 (single isomer, unassigned) [1f-(S)]', 'nM', 1300);

Query: Observed IC50 on Src kinase (Homo sapiens, UniProt P12931) for COc1cccc(-c2cn(C(C)(C)C)c3ncnc(N)c23)c1 [Compound 5, reference compound] , please.
Sequence (P12931 whole entry): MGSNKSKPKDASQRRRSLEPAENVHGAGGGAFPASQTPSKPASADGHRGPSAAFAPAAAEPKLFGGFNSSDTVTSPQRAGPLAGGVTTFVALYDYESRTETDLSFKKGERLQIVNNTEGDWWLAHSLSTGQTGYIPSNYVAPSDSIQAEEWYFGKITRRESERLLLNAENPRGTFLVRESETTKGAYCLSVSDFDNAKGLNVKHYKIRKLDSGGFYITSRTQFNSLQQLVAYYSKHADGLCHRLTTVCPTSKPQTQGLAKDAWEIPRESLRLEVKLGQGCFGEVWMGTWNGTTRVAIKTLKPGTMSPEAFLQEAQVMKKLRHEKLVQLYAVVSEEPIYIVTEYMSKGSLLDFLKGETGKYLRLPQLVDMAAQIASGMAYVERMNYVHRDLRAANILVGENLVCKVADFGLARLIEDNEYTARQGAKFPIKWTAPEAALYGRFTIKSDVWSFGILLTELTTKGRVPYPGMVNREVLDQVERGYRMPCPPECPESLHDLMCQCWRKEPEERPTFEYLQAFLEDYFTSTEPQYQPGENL
Result: 151

Query: Observed IC50 on Src kinase (Homo sapiens, UniProt P12931) for COc1ccc(Cl)c(-c2c(Cl)n(C(C)(C)C)c3ncnc(N)c23)c1 (single isomer, unassigned) [2e-(R)] , please.
Result: 5570
